Measure Name: melting point

Worked cases, melting point given:
>>> result("Nc1ccc(Cl)c(S(=O)(=O)Nc2cccc(Cl)c2)c1")
"158 to 160 °C"
>>> result("O=C(O)c1cccc(OC2CCCC2)c1")
"79 to 81 °C"
>>> result("CC(=O)Nc1ccc(C(=O)CCl)c(F)c1")
"128 to 130 °C"
>>> result("Cc1ccc(N)c2cccnc12")
"144 to 146 °C"
>>> result("CC(Sc1ccc([N+](=O)[O-])cc1)C(=O)O (stereo not drawn)")
"114 to 116 °C"

Please state melting point for every compound in the list that follows.
1. Cc1cn(CC(=O)O)c2ccccc12
2. O=C(O)CCCOc1ccc(S(=O)(=O)Cl)cc1F
3. COC(=O)c1cc(Cl)c(N)cc1OC
4. Cc1cccc(Oc2ncccc2N)c1C
5. CC(C)n1cc(Br)cc1C(=O)O
6. Cn1cc(S(=O)(=O)Cl)cn1

Solution:
["175 to 177 °C", "112 to 114 °C", "124 to 126 °C", "147 to 149 °C", "148 to 150 °C", "48 to 50 °C"]

Please state melting point for every compound in the list that follows.
1. CC(=O)N(c1cccc(C)c1)c1nc(CCl)cs1
2. Fc1ccccc1-c1nc(CCl)cs1
3. O=S(=O)(c1cccc2c1N=S=N2)N1CCNCC1
4. CCOC(=O)C1CN(Cc2ccccc2)CCC1=O (stereo not drawn)
5. O=C(O)CNS(=O)(=O)c1ccc(Cl)c([N+](=O)[O-])c1

Solution:
117 to 119 °C
64 to 66 °C
178 to 183 °C
161 to 163 °C
150 to 152 °C

Please state melting point for every compound in the list that follows.
1. FC(F)(F)c1ccc2sc(C3CCNCC3)nc2c1
2. Nc1cnc(Br)cc1C(=O)O
3. Cc1cc(Br)cc2cc(C(=O)O)oc12
4. Cc1csc(N2CCC(=O)CC2)n1
5. Cc1nc2c3ccccc3nc(Cl)n2n1

Solution:
71 to 73 °C
256 to 258 °C
222 to 224 °C
59 to 61 °C
140 to 142 °C

Please state melting point for every compound in the list that follows.
1. COc1ccc(N2CC(C(=O)O)CC2=O)c(OC)c1 (stereo not drawn)
2. COc1ccc(S(=O)(=O)NCC(=O)O)cc1OC

Solution:
183 to 185 °C
173 to 175 °C

----------
Record form. Attribute: melting point. Fill in for each entry.

Please state melting point for every compound in the list that follows.
1. CN(CC(=O)O)S(=O)(=O)c1ccc2ccccc2c1
2. Nc1nnc(CCOc2ccccc2)o1
3. CC(Oc1ccc(-c2ccccc2)cc1)C(=O)O (configuration not stated)
4. CCn1c(C=O)nc2ccccc21
5. CC(=O)c1ccc(-c2ccc(C(=O)O)o2)cc1
6. O=C(O)c1cnn(-c2ccc(Cl)cc2)c1
7. Cc1ccc(C(C)(C)CC(=O)O)cc1
8. Nc1ccccc1N1CCC(O)CC1

Solution:
["172 to 174 °C", "142 to 144 °C", "159 to 161 °C", "49 to 51 °C", "219 to 221 °C", "237 to 239 °C", "50 to 57 °C", "117 to 119 °C"]

Please state melting point for every compound in the list that follows.
1. OCc1ccc(N2CCN(c3ncccn3)CC2)c(F)c1
2. C#CCNC(=O)CC#N
3. Fc1cccc(CCNC2=NCCS2)c1
4. O=C1NS(=O)(=O)c2ncccc21
5. CC(C1CC1)N(C)C(=O)c1ccc[nH]c1=O (configuration not stated)
6. O=C1CCCc2nc(-c3ccncc3)sc21
7. O=C(O)c1ccc(NS(=O)(=O)c2ccccc2)cc1
8. O=C(O)c1ccc(CNC2=NS(=O)(=O)c3ccccc32)cc1

Solution:
["114 to 116 °C", "108 to 110 °C", "74 to 76 °C", "199 to 201 °C", "187 to 189 °C", "159 to 161 °C", "209 to 211 °C", "303 to 305 °C"]

Please state melting point for every compound in the list that follows.
1. COC(=O)CCc1nnc(N)s1
2. N#CCc1ccc(NC(=O)CCl)cc1
3. O=Cc1csc(-c2ccc(F)cc2)n1
4. NCC(O)c1cc(Cl)c2c(c1)OCCO2 (configuration not stated)
5. CC1(C2CCNCC2)NC(=O)NC1=O (configuration not stated)
6. Cn1cc(-c2ncc(C=O)s2)cn1
7. O=C1NCCN1CCN1CCNCC1
8. COc1cc(C=O)cc(Cl)c1OCC(N)=O

Solution:
135 to 137 °C
122 to 124 °C
99 to 101 °C
131 to 133 °C
243 to 245 °C
141 to 143 °C
139 to 141 °C
166 to 170 °C

----------
Measure Name: melting point

Worked cases, melting point given:
>>> result("CC(C)(C)OC(=O)N1CCCC(C(C)(C)C(=O)O)C1 (stereo not drawn)")
"96 to 98 °C"
>>> result("Cc1cc(CO)nc(N2CCCCC2)n1")
"51 to 53 °C"
>>> result("Cc1nn(-c2ccccc2)c2ncc(C(=O)O)cc12")
"278 to 280 °C"
>>> result("O=c1c(Cl)nccn1C1CC1")
"90 to 92 °C"
>>> result("CCC(C)n1c(S)nnc1-c1ccccc1 (stereo not drawn)")
"166 to 168 °C"
>>> result("Cn1cccc1C(=O)N1CCNCC1")
"58 to 60 °C"

Please state melting point for every compound in the list that follows.
1. COc1ccc(CNc2nccs2)cc1
2. Nc1ccc2oc(=O)[nH]c2c1

Solution:
1: 147 to 149 °C; 2: 204 to 206 °C

----------
Measure Name: melting point

Worked cases, melting point given:
>>> result("CCOC(=O)c1cnn(-c2ccc(C(=O)O)cc2)c1C")
"201 to 203 °C"
>>> result("O=C(O)C1CC1c1cccc(Br)c1 (stereo unspecified)")
"115 to 117 °C"
>>> result("CC(O)c1ccc(CN)cc1 (stereo unspecified)")
"87 to 89 °C"
>>> result("O=C(O)C1CCN(S(=O)(=O)c2cccnc2)CC1")
"237 to 239 °C"
>>> result("O=C1CCS(=O)(=O)c2ccc(Br)cc21")
"146 to 148 °C"

Attention now turns to another entry.
Exercise: Can you look up the measured melting point of Nc1ccn(Cc2ccccc2)n1 for me?
Solution: 56 to 58 °C

----------
Record form. Attribute: melting point. Fill in for each entry.

Please state melting point for every molecule in the list that follows.
1. CCCCc1ccc(NC(=O)/C=N/O)cc1
2. CNc1ncccc1N
3. O=C1CS/C(=C/C(=O)C2CC2)N1
4. O=C1Nc2ccccc2N2CCC12 (centres undefined)

Solution:
["120 to 122 °C", "108 to 110 °C", "188 to 190 °C", "169 to 171 °C"]

Please state melting point for every molecule in the list that follows.
1. CCOCCCNC(=S)NCc1ccc(OC)cc1
2. Cc1ccc(C(=O)Cc2ccccc2)cc1C
3. O=C(O)c1cc2cc(Br)cc(Br)c2o1
4. CN1CCN(S(=O)(=O)c2ccc(Cl)nc2)CC1
5. COC(=O)c1nc(-c2ccccc2)oc1N

Solution:
["39 to 41 °C", "93 to 95 °C", "279 to 281 °C", "129 to 131 °C", "193 to 195 °C"]

----------
Record form. Attribute: melting point. Fill in for each entry.

>>> result("CC(=O)c1ccc(OC2CCOCC2)cc1")
"72 to 74 °C"
>>> result("CC(=O)c1ccc(N2CCCC2)c(F)c1")
"36 to 38 °C"
>>> result("CN1CCN(S(=O)(=O)c2ccc3c(c2)CCN3)CC1")
"176 to 178 °C"
>>> result("NS(=O)(=O)c1ccc([N+](=O)[O-])nc1")
"174 to 176 °C"
>>> result("CN(C)C(=O)CNc1ccccc1")
"114 to 116 °C"
>>> result("O=Cc1cnc2ccccn12")
"118 to 120 °C"

Please state melting point for every compound in the list that follows.
1. COc1ccccc1NS(=O)(=O)c1ccc(C(=O)O)cc1
2. O=C1NC(=O)C(c2cccs2)(C2CC2)N1 (configuration not stated)
3. Cc1oc(C(=O)O)cc1S(=O)(=O)N1CCCC1
4. O=C(O)C=Cc1ccnc2ccccc12
5. Nn1cnc2ccc(Br)cc2c1=O
6. Cc1c[nH]c(=O)n1-c1cccc([N+](=O)[O-])c1

Solution:
201 to 203 °C
199 to 201 °C
219 to 221 °C
256 to 258 °C
230 to 232 °C
201 to 203 °C

----------
Record form. Attribute: melting point. Fill in for each entry.

Worked cases, melting point given:
>>> result("O=S(=O)(c1ccc(S)cc1)C(F)(F)F")
"116 to 118 °C"
>>> result("Nc1ccc(C(=O)Nc2ccc3cn[nH]c3c2)cc1")
"272 to 274 °C"
>>> result("NCc1nc(-c2ccc(Cl)cc2)cs1")
"105 to 107 °C"
>>> result("CCn1cc(S(N)(=O)=O)nc1C")
"179 to 181 °C"
>>> result("NC(=NO)c1ccnc(N2CCCCC2)c1")
"179 to 181 °C"
>>> result("CC(=O)N1CCCc2cc(C(=O)O)ccc21")
"184 to 186 °C"
>>> result("O=C(O)C1COc2ccc(Br)cc21 (configuration not stated)")
"114 to 116 °C"
>>> result("N#Cc1cnn2cc(C=O)cnc12")
"222 to 224 °C"

Please state melting point for every compound in the list that follows.
1. CN1CCN(C(=O)C2CCc3ccccc3N2)CC1 (configuration not stated)
2. N#Cc1ccc(Cl)cc1NCc1ccccc1
3. CC(O)c1cc(Cl)ccc1Cl (configuration not stated)
4. COC(=O)c1ccnc(Cl)c1
5. O=C(O)CC1NC(=O)N(c2ccc(F)cc2)C1=O (configuration not stated)

Solution:
113 to 115 °C
93 to 95 °C
60 to 64 °C
31 to 33 °C
224 to 226 °C
